Each recorded value in this set is attributed to the supplement of paper PMC6757056.

B1: library; a variant is named by its letters at N, in order (parent)
chain: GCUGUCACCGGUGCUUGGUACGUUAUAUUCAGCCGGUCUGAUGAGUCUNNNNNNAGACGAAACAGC

variants of: B1; assay: normalized RNA/DNA level with ligand (relative to sTRSVctl = 100) (log10 (% of sTRSVctl)); HEK293T overexpressing SLC46A1; ligand concentration (+) RNA-Seq: 6 mM; higher = less ribozyme self-cleavage, higher mRNA level; conditions: with (6R,S)-folinic acid; ligand present: yes
Please respond with reported normalized RNA/DNA level with ligand (log10) for every item in the list.
One number for each entry.

In the examples that follow, each entry is paired with its recorded normalized RNA/DNA level with ligand (log10).
AAGCGA :: 2.02
GCCCGA :: 2.04
GAGCUA :: 2.04

Give normalized RNA/DNA level with ligand (log10) for each listed item.
1. AGACGG
2. GUCUAC
3. CAUGCC
4. CUUGAG
5. ACUCGA
6. AUAUUA
7. UAGCCA
8. GAAGAC

1: 2.01; 2: 2.02; 3: 2.03; 4: 2; 5: 2.03; 6: 2; 7: 2.05; 8: 2.03

Give normalized RNA/DNA level with ligand (log10) for each listed item.
1. GUUGCA
2. UCAUCA
3. AUGUGA
4. ACGCCU
5. CGCCAC

1: 2.01; 2: 2.03; 3: 2.01; 4: 2.06; 5: 1.99

Give normalized RNA/DNA level with ligand (log10) for each listed item.
1. GCUAUU
2. GGUUAA
3. ACGCGC
4. AUCGAA
5. UCCGUA
6. ACUUGU

1. 2.04
2. 2.02
3. 2.01
4. 2
5. 2
6. 2.06
